Experiment: yeast display, Sf9 membrane polyspecificity reagent, FACS + sequencing; frameworks hold sequencing errors
test-readout: polyreactivity (PSR sort gate)

Please review the entries below; each comes with its answer.
INSERT INTO results (macromolecule_sequence, reported_measurement) VALUES
  ('QVQLVESGGGLVQAGGSLRLSCAASGFTFIRYAMGWYRQAPGKERELVARITSGGSTYYADSVKGRFTISRDNAKNTVYLQMNSLKPEDTAVYYCNADKWYIIQGYYWPGYEYWGQGTQVTVSS', 'low polyreactivity'),
  ('QVQLVESGGGLVQAGGSLRLSCAPSGITFRHYALGGYRQAPGKERELVAAITSRGGSTYYADSVKGRFTISRDNAKNTVYLQMNSLKPEDTAVYYCNKRLYYQRWPAAAREYWGQGTQVTVSS', 'high polyreactivity'),
  ('QVQLVESGGGLVQAGGSLRLSCADSGSTFRANAMGWYRQAPGKERELVAAISQSGGITYYADSVKGRFTISRDNAKNSVYLQMNSLKPEDTAVYYCAAEYWFYYVDSFYYWGQGTQVTVSS', 'high polyreactivity'),
  ('QVQLVESGGGLVQAGGSLRLSCAASGRTFVVNAKGWYRQAPGKEREFVAAISYRGDSTYYSDSVKGRFTISRDNAKNTVYLQMNSLKPEDTAVYYCAARVLGPGRRFYYWVQGTQVTVSS', 'high polyreactivity'),
  ('QVQLVESGVGLVQAGGSLRLSCAACGSTFPINAMGWYRQAPGKESELVAAISWSAGSTHYADSVKGRFTISRDNAKNTVYLQMNSLKPEDTAVYYCAAETWGLGDYWGLGTQVTVSS', 'low polyreactivity'),
  ('QVQLVESGGGLVQAGGSLRLSCPASGFIFRYYAMGWYRQAPGKERELVAAISWSGGSTYYADSVKGRFTISRDSAKNTVYLQIYSLKPEDTAVYYCGAEGFSYFIYWGQGSQVTVSS', 'high polyreactivity'),
  ('QVQLVESWGVLVQAGGSLRLSCAASGSIFYYYVMGWYRQAPWKERELVAAISYGGGTNYADSVKERFTISRDNAKNTVYLQMISLKPEDTAVYYCNVVTYRRFDYWGQGTQVTVSS', 'low polyreactivity'),
  ('QVQLVESGGGLVQAGGSLRLSCAASGITFHRYAMGWYRQAPGKERELVAAITKRGGSTNYADSVKGRFTISRDNAKNTVYLQMNSLKPEDTAVYYCNARSTWPSGRYAHYRRYYYWGQGTQVTVSS', 'high polyreactivity'),
  ('QVQLVESAGGLVQAGGSLRLSCAASGSTFAFYAMGWYRQAPGKERELVAVISLRGSRTYYADSVKGRFTISRDNAKNTVYLQMSSLKPEDTAVYYCATTGYRLRQATRYDYWGQGTQVTVSS', 'high polyreactivity'),
  ('QVQLVESGGGLVQAGGSLRISCAASGRTFGYYGMGWSRQAPGKERELVAGITSRGGSTYYADSVKGRFTISRDNAKNTVYLQMNSLKPEDTAVYYCNAQYARKYGFWTAYDYWGQGTQVTVSS', 'high polyreactivity');

Quick check: polyreactivity (PSR sort gate) of `QVQLVESGGGLVQAGGSLRLSCAASGYTFGTYTMGWYRQAPGKERELVAGIDSGGTTNYADSVKGRFTISRDNAKNTVYLKMNRVKPEDTAVYYCTAYHLLIVDYYLGMYYYGGNYYWGQGNQVTVSS` ? low polyreactivity
